# assay system: human Siglec-7 expressed on human cells (primary monocytes, dendritic cells, macrophages, NK cells, … (human, UniProt Q9Y286 19-467))
# Sequence (Q9Y286 19-467): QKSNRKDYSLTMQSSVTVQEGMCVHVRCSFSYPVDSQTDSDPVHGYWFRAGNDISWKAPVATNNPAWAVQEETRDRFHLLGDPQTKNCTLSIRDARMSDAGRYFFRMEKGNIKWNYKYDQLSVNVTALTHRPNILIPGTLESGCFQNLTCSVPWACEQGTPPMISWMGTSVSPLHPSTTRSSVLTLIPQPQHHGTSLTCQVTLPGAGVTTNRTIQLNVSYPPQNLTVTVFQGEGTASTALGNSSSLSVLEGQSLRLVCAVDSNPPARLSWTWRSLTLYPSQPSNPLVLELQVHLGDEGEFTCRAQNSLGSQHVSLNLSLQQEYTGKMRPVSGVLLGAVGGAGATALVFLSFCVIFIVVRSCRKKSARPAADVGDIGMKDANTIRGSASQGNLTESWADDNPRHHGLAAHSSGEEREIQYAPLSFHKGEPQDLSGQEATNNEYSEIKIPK
# measurement notes: cell-based or functional assay
observed property: Percent Siglec-7 Surface Expression, Macrophages (%)
Quick note: give the figure in %, leave out the unit.

Past entries and their recorded results:
| binder | reading |
| --- | --- |
| anti-Siglec-7 antibody 4A1 (antibody, V domains shown, Variable domains assembled from FR and CDR entries) VH: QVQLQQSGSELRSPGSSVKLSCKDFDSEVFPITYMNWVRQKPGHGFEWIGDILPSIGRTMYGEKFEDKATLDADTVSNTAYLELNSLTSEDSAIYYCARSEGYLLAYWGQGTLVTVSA VL: DVVMTQTPLSLPVSLGDQASISCRSSQSLVHSTGNIYLHWYLQKPGQSPKLLIYKVSNRFZGVPDRFSGSGSGTDFTLKISRVEAEDLGVYFCSQNTHVPYTFGGGTKLEIK | 13.1 |
| anti-Siglec-7 antibody 1A12 (antibody, V domains shown, also called 1Al2) VH: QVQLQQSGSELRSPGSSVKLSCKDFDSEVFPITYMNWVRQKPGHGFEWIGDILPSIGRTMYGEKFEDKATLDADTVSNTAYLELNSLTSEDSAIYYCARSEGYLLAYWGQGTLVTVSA VL: DVZMTQTPLSLPVSLGDQASISCRSSQSLVHSTGNTYLHWYLQKPGQSPKLLIYKVSNRFSGVPDRFSGSGAGTDFTLKISRVEAEDLGVYFCSQNTHVPYTFGGGTKLEIK | 13.4 |

Now consider the entry below.
Complete the entry with Percent Siglec-7 Surface Expression, Macrophages for anti-Siglec-7 antibody 3E11 (antibody, V domains shown, Variable domains assembled from FR and CDR entries) VH: QVQLQQSGAELARPGASVKLSCKASGYIFTDYGITWVKQRTGQGLEWIGEISPRSGETYFNENYRVKATLTADKSSSTAYMQLFSLTSEDSAVYFCAREGNPFTYWGHGTLVTVSA VL: DVZMTQTPLSLPVSLGDQASISCRSSQSLVHSTGNTYLHWYLQKPGQSPKLLIYKVSNRFCGVPDRFSGSGAGTDFTLKISRVEAEDLGVYFCSQNTHVPYTFGGGTKLEIK 7.4
